# Measured target: T1, human CD4 on human PBMCs (human, UniProt P01730 26-458)
# T1 construct: whole, on cells; the CD4-positive gate was set with the control antibodies OKT4 and RPA-T4; also called hCD4
# Assay method text: FACS, clonal hybridoma supernatant on PBMCs
Measured property: gMFI of CD4+ (gMFI)
Only the number, expressed in gMFI, is required.

Worked cases, answers included:
Binder	Unit abbrev	gMFI of CD4+
75110_04P08A (antibody, V domains shown, Tested as clonal hybridoma supernatant of an AlivaMab Mouse Kappa antibody (human variable regions, kappa; detected with anti-mouse Fc)) VH: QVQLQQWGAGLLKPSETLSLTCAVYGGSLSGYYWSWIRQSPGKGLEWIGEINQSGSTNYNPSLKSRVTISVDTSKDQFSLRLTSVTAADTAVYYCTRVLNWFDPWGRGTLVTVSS VL: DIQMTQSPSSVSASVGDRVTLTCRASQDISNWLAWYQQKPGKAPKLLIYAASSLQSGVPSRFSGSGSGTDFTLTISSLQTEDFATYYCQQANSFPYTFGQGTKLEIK	gMFI	128000
75110_05B13A (antibody, V domains shown, Tested as clonal hybridoma supernatant of an AlivaMab Mouse Kappa antibody (human variable regions, kappa; detected with anti-mouse Fc)) VH: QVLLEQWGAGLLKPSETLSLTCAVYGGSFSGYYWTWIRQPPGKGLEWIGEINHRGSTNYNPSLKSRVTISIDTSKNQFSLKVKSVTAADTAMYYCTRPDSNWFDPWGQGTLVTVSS VL: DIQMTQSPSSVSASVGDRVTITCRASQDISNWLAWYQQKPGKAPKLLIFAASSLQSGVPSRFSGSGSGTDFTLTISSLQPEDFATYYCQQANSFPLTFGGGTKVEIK	gMFI	135000
75110_04G16A (antibody, V domains shown, Tested as clonal hybridoma supernatant of an AlivaMab Mouse Kappa antibody (human variable regions, kappa; detected with anti-mouse Fc)) VH: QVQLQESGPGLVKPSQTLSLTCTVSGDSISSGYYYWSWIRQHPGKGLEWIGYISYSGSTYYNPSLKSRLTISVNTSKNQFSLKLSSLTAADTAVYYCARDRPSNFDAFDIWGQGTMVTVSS VL: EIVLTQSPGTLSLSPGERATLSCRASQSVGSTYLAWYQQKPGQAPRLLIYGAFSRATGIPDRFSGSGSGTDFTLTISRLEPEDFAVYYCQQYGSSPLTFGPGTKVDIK	gMFI	240000

Query binder follows.
Documented gMFI of CD4+ of 75110_06D16A (antibody, V domains shown, Tested as clonal hybridoma supernatant of an AlivaMab Mouse Kappa antibody (human variable regions, kappa; detected with anti-mouse Fc)) VH: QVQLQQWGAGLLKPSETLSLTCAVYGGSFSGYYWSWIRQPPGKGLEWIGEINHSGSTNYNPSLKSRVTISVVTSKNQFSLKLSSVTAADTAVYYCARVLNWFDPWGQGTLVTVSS VL: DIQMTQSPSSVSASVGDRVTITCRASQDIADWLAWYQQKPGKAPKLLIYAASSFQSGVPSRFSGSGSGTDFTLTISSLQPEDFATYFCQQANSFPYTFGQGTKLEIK : 253000

All values here come from patent US20220112288A1.
